Kindly supply the reported IC50 values for the records listed here.
system-name: UniProt:Q9UBT2
assay: Inhibition of SAE in human HCT116 cells assessed as redistribution of SUMO2/3 proteins from nucleus to cytosol preincubated for 2 hrs followed by compound washout and measured immediately by immunofluorescence assay
Type: cell-based, HCT-116
Write the answer as a number in nM, unit excluded.

Would you kindly share the measured IC50 for NS(=O)(=O)OC[C@H]1C[C@@H](Nc2ncncc2C(=O)c2cc(C(O)c3cccc(Cl)n3)c(Cl)s2)C[C@@H]1O (some centres undefined) ?
16

Would you kindly share the measured IC50 for Cc1sc(C(=O)c2cncnc2N[C@@H]2C[C@H](COS(N)(=O)=O)[C@@H](O)C2)cc1C(N)c1cccc(Cl)c1 (some centres undefined) ?
19

Would you kindly share the measured IC50 for NS(=O)(=O)OC[C@H]1C[C@@H](Nc2ncncc2C(=O)c2cc(C(O)c3cccc(Cl)c3)cs2)C[C@@H]1O (stereo in doubt; 31) ?
43

Would you kindly share the measured IC50 for NS(=O)(=O)OC[C@H]1C[C@@H](Nc2ncncc2C(=O)c2cc(Cc3cccc(Cl)c3)c(Cl)s2)C[C@@H]1O ?
184

Data origin: ChEMBL document CHEMBL4834402
